# credit: ChEMBL document CHEMBL1817601

- MEASUREMENT_NOTES: Half life in rat at 0.3 mg/kg, iv
- Format: ADME, organism-based
- Set-up: dose 0.3 mg/kg, route intravenous
- CONDITION_NOTES: in vivo
ENDPOINT_LABEL: half-life (h)
Expressed in h, but write only the number.

Let me know recorded half-life for CCC(CC)Nc1c2c(nc3c(-c4ccc(OC)cc4Cl)c(C)nn13)CCC2 [ONO-2333MS] , thanks.
4.7

###

- TARGET_SYSTEM: Corticotropin-releasing factor receptor 1 (Homo sapiens, UniProt P34998)
- Sequence (P34998 whole entry): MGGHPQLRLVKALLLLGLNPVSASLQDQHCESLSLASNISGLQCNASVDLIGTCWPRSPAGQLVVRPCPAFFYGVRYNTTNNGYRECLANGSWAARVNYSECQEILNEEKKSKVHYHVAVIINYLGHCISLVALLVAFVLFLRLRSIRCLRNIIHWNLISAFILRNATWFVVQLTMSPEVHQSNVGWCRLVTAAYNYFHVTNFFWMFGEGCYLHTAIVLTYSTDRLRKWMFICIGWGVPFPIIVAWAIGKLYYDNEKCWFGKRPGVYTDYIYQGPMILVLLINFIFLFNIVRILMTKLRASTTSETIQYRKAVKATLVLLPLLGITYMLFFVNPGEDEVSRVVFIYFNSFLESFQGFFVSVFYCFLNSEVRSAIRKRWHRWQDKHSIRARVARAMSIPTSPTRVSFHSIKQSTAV
- MEASUREMENT_NOTES: Displacement of [125I]CRF from human corticotropin-releasing factor receptor 1 expressed in CHO-K1 cells after 2 hrs by gamma counting
- Format: cell-based
ENDPOINT_LABEL: IC50 (µM)
Expressed in µM, but write only the number.

{"columns": ["SMILES_CODE", "IC50 [µM]"],
 "data": [
  ["CCC(CC)Nc1c2c(nc3c(-c4ccc(OC)cc4C)c(CSC)nn13)CCC2", 0.62],
  ["CCC(CC)Nc1c2c(nc3c(-c4ccc(OC)cc4SC)c(C)nn13)CCC2", 0.049]
]}

Fill: IC50 (Corticotropin-releasing factor receptor 1 (Homo sapiens, UniProt P34998)) for this molecule CCC(CC)Nc1c2c(nc3c(-c4c(C)cc(OC)cc4C)c(C)nn13)CCC2
0.009

Fill: IC50 (Corticotropin-releasing factor receptor 1 (Homo sapiens, UniProt P34998)) for this molecule CCC(CC)Nc1c2c(nc3c(-c4ccc(OC)cc4Cl)c(C)nn13)OCC2
0.084

Fill: IC50 (Corticotropin-releasing factor receptor 1 (Homo sapiens, UniProt P34998)) for this molecule CCc1nn2c(NC(CC)CC)c3c(nc2c1-c1ccc(OC)cc1C)CCC3
0.097

###

- MEASUREMENT_NOTES: AUC (infinity) in rat at 0.3 mg/kg, iv
- Assay type: ADME, organism-based
- Design: time infinity, dose 0.3 mg/kg, route intravenous
- CONDITION_NOTES: plasma
ENDPOINT_LABEL: AUC(0-inf) (ng·h/mL)
Expressed in ng·h/mL, but write only the number.

Let me know recorded AUC(0-inf) for CCC(CC)Nc1c2c(nc3c(-c4ccc(OC)cc4Cl)c(C)nn13)CCC2 [ONO-2333MS] , thanks.
278

###

- TARGET_SYSTEM: Corticotropin-releasing factor receptor 1 (Homo sapiens)
- MEASUREMENT_NOTES: Displacement of [125I]CRF from human corticotropin-releasing factor receptor 1 expressed in CHO-K1 cells after 2 hrs by gamma counting
- Format: cell-based
List of pIC50 values.
Reminder that pIC50 is minus the log10 of a molar concentration.

Look over these answered cases.
{"columns": ["MOLECULE", "TARGET_SYSTEM", "pIC50"],
 "data": [
  ["CCC(CC)Nc1c2c(nc3c(-c4ccc(F)cc4C)c(C)nn13)CCC2", "Corticotropin-releasing factor receptor 1 (Homo sapiens)", 7.03],
  ["CCC(CC)Nc1c2c(nc3c(-c4ccc(OC)cc4C)c(C(F)(F)F)nn13)CCC2", "Corticotropin-releasing factor receptor 1 (Homo sapiens)", 7.23],
  ["CCC(CC)Nc1c2c(nc3c(-c4ccc(OC)cc4C)c(C)nn13)COC2", "Corticotropin-releasing factor receptor 1 (Homo sapiens)", 7.46],
  ["CCC(CC)Nc1c2c(nc3c(-c4ccc(OC)cc4C)cnn13)CCC2", "Corticotropin-releasing factor receptor 1 (Homo sapiens)", 6.62],
  ["CCC(CC)Nc1c2c(nc3c(-c4ccc(N(C)C)cc4C)c(C)nn13)CCC2", "Corticotropin-releasing factor receptor 1 (Homo sapiens)", 7.42],
  ["CCC(CC)Nc1c2c(nc3c(-c4ccc(OC)cc4C)c(C)nn13)CCS2", "Corticotropin-releasing factor receptor 1 (Homo sapiens)", 7.10],
  ["CCC(CC)Nc1c2c(nc3c(-c4ccc(OC)c(OC)c4)c(C)nn13)CCC2", "Corticotropin-releasing factor receptor 1 (Homo sapiens)", 6.22],
  ["CCC(CC)Nc1c2c(nc3c(-c4ccc(OC)cc4Cl)c(C)nn13)CCC2 [ONO-2333MS]", "Corticotropin-releasing factor receptor 1 (Homo sapiens)", 8.40]
]}

Let me know recorded pIC50 for CCC(CC)Nc1c2c(nc3c(-c4ccc(C)cc4C)c(C)nn13)CCC2 , thanks.
7.14

Let me know recorded pIC50 for CCC(CC)Nc1c2c(nc3c(-c4cc(C)c(OC)cc4C)c(C)nn13)CCC2 , thanks.
7.66
